# credit: patent US20220025021A1

neutralization IC80 for assorted binders
- TEST SYSTEM: HIV-1 Env of pseudovirus SC422661.8 (HIV-1)
- EXPERIMENT: cell-based or functional assay
Give a bare numeral; the unit µg/mL is implied.

MS-83 (antibody, V domains shown) VH: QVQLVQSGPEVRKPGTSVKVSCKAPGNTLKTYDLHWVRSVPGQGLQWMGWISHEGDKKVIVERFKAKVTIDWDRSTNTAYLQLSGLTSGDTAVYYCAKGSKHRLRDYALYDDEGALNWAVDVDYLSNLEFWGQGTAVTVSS VL: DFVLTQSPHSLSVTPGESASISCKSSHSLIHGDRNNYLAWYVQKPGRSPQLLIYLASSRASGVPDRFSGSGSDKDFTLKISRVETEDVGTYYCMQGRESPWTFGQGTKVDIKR: 2.11
MS-81 (antibody, V domains shown) VH: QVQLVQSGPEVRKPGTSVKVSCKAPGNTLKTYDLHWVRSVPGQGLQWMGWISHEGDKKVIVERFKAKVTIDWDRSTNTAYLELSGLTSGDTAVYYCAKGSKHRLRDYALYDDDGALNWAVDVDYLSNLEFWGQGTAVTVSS VL: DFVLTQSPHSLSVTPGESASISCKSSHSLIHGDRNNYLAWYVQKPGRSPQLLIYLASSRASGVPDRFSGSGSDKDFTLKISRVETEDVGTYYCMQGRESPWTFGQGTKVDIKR: 4.25
MS-78 (antibody, V domains shown) VH: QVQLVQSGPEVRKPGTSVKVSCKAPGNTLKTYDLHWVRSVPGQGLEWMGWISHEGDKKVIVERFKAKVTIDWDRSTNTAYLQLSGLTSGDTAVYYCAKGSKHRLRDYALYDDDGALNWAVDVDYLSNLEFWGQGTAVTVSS VL: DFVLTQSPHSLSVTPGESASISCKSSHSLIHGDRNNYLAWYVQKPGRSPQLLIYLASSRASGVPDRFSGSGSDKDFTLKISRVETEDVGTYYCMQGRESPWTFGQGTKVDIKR: 3.63

Pending binder:
Dear colleague, I am looking for the recorded neutralization IC80 of the following binder: MS-72 (antibody, V domains shown) VH: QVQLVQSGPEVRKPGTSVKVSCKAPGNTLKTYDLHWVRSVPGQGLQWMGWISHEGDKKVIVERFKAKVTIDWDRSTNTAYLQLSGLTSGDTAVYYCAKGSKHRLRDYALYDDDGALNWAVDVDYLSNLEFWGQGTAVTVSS VL: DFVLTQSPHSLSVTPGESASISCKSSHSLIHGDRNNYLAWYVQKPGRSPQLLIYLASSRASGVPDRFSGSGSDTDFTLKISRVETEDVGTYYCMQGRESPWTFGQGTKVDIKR
2.83
